The entries below come with measured GI50 values attached.
Test system: NCI/ADR-RES
Assay: NCI tumour cell line growth inhibition, 48 h
Activity calls are given as the source filed them. Cut-off read from the data, not from the text of the source: active = GI50 up to about 1.1 µM and inactive = higher.

Record request: GI50 value, item CC1(C)CC(=O)c2c(nc3ccc4ccccc4c3c2-c2ccc(NC(=O)CCCCC(=O)Nc3ccc(-c4c5c(nc6ccc7ccccc7c46)CC(C)(C)CC5=O)cc3)cc2)C1
> 100 µM (inactive)

----------
Test system: OVCAR-4
Assay: NCI tumour cell line growth inhibition, 48 h
Active and inactive are the calls of the source. No stated cut-off is given here; in the data, active = GI50 up to about 1.1 µM and inactive = higher.
quantity measured: GI50

Value wanted: GI50 (OVCAR-4) of entry C=C(C)C12CC(COC(=O)c3ccccc3)C34OC5(OC1C3C1OC1(CO)C(O)C1(O)C(OC(=O)c3ccccc3)C(C)C(C(C)CCCCCCC5O)C14)O2 (centres undefined)
> 100 µM (inactive)

Also Cc1ccc(NCC2CC/C(=C\c3ccc(Cl)cc3)C2=O)cc1 (centres undefined) ?
24.4 µM (inactive)

Also Oc1c(CN2CCOCC2)ccc2cccnc12 ?
> 10 µM (inactive)

Further cases:
Value wanted: GI50 (OVCAR-4) of entry CC(C)N(C(=O)C12C3C4C1C1C2C3C41C#N)C(C)C (centres undefined)
> 100 µM (inactive)
